Give measured IC50 for each item. Keep answers brief.
experiment: Antiproliferative activity against human SW620 cells after 24 hrs by MTT assay; type: functional, cell-based; settings: SW-620, 24 h
Answer with a number only, understood to be in nM.

Data request: Fill in: IC50 of `CN(c1ccc(OCCN2CCN(Cc3ccccc3Cl)CC2)cc1)c1nc(Cl)nc2ccccc12` is ___
Data returned: 980

Data request: Field entry: `Cc1nc(N(C)c2ccc(OCCN3CCN(Cc4ccccc4Cl)CC3)cc2)c2ccccc2n1`
Data returned: 2920

Data request: Field entry: `CN(c1ccc(OCCN2CCN(Cc3ccccc3F)CC2)cc1)c1nc(Cl)nc2ccccc12`
Data returned: 52

Data request: Field entry: `Cc1nc(N(C)c2ccc(OCCN3CCN(Cc4ccccc4F)CC3)cc2)c2ccccc2n1`
Data returned: 716

---

experiment: Antiproliferative activity against human SW620 cells after 24 hrs by MTT assay; assay type: functional, cell-based; details: SW-620, 24 h
Readout Type: pIC50
pIC50 is defined as minus the log10 of a concentration measured in mol/L.

Data request: Fill in: pIC50 of `Cc1nc(N(C)c2ccc(OCCN3CCN(Cc4ccccc4Br)CC3)cc2)c2ccccc2n1` is ___
Data returned: 5.91

Data request: Field entry: `CN(c1ccc(OCCN2CCN(Cc3ccc(F)c(F)c3)CC2)cc1)c1nc(Cl)nc2ccccc12`
Data returned: 6.05

Data request: Field entry: `Cc1nc(N(C)c2ccc(OCCN3CCN(Cc4ccccc4C#N)CC3)cc2)c2ccccc2n1`
Data returned: 6.05

Data request: Field entry: `CN(c1ccc(OCCN2CCN(Cc3c(F)cccc3F)CC2)cc1)c1nc(Cl)nc2ccccc12`
Data returned: 5.49

Data request: Field entry: `Cc1nc(N(C)c2ccc(OCCN3CCN(Cc4ccc(F)c(F)c4)CC3)cc2)c2ccccc2n1`
Data returned: 5.49
